molecular target: UniProt E9PZ66; settings: stereoisomer not certain
Sequence (E9PZ66 as listed by the source): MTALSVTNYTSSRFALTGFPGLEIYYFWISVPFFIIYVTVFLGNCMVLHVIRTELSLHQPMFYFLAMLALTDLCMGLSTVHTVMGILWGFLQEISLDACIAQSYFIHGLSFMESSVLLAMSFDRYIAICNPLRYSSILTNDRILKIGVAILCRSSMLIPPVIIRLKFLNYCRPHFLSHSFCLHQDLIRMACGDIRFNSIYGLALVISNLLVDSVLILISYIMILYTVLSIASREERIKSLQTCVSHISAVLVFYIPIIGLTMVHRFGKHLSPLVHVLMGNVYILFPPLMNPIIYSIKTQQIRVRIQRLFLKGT
quantity: odorant receptor agonist call

Some solved cases for reference:
[
  {
    "compound": "OCc1ccc2c(c1)OCO2",
    "recordedValue": "inactive"
  },
  {
    "compound": "CCCCCCC(Br)C(=O)O (stereo not drawn)",
    "recordedValue": "inactive"
  },
  {
    "compound": "O=CC=Cc1ccccc1",
    "recordedValue": "inactive"
  },
  {
    "compound": "CC(C=O)Cc1ccc2c(c1)OCO2 (stereo not drawn)",
    "recordedValue": "inactive"
  },
  {
    "compound": "CCCCC(Br)C(=O)O (stereo not drawn)",
    "recordedValue": "inactive"
  },
  {
    "compound": "O=c1cc(O)c2ccccc2o1",
    "recordedValue": "inactive"
  },
  {
    "compound": "C=CCOC(=O)Cc1ccccc1",
    "recordedValue": "inactive"
  }
]

Now for the compound whose odorant receptor agonist call we want.
Form field: reported odorant receptor agonist call of O=Cc1ccc2c(c1)OCO2 inactive
